Values from patent US9163042B2

Assay: Rat oral pharmacokinetic study
Format: in vivo, Sprague Dawley rats
Conditions: Sprague Dawley; female rat, single PO 100 mg/kg of compound 9, 5% TPGS/5% PVP-K30/50 mM Citrate pH 5, analyte 9a in plasma, mean ± SD
Procedure: Sample Analysis. […] Before extraction, plasma samples were diluted using blank plasma at an appropriate dilution factor, as necessary, depending on the dose level. […] After centrifugation, the supernatant extract (10 μL) was injected onto the LC/MS/MS system. […] The analytes were detected by MS/MS with Electrospray Ionization (ESI) in the mode of multiple reaction monitoring (MRM). […] Key pharmacokinetic parameters such as AUCall, AUCextra, Cmax, tmax, Cl, Vss and t1/2 were determined. […]
property label: AUC (µg·h/mL)
API: value field is a number in µg·h/mL; no unit string.

Problem: Look at this compound and give its reported AUC. Cc1cc(F)ccc1Oc1cc(C(F)(F)F)ccc1C(=O)Nc1cc[nH]c(=O)c1
Result: 187

----------
Test: Rat oral pharmacokinetic study
Type: in vivo, Sprague Dawley rats
Conditions: Sprague Dawley; female rat, single PO 640 mg/kg of compound 9, 5% TPGS/5% PVP-K30/50 mM Citrate pH 5, analyte 9a in plasma, mean ± SD
property label: AUC

Problem: Look at this compound and give its reported AUC. Cc1cc(F)ccc1Oc1cc(C(F)(F)F)ccc1C(=O)Nc1cc[nH]c(=O)c1 [Compound 9a]
Result: 324 µg·h/mL

----------
Experiment: Rat oral pharmacokinetic study
Assay type: in vivo, Sprague Dawley rats
Conditions: Sprague Dawley; male rat, single PO 640 mg/kg of compound 9, 5% TPGS/5% PVP-K30/50 mM Citrate pH 5, analyte 9a in plasma, mean ± SD
property label: half-life (min)
API: value field is a number in min; no unit string.

Problem: Look at this molecule and give its reported half-life. Cc1cc(F)ccc1Oc1cc(C(F)(F)F)ccc1C(=O)Nc1cc[nH]c(=O)c1
Result: 415

----------
Experiment: Rat IV pharmacokinetic study
Format: in vivo, Sprague Dawley rats
Settings: male, Sprague Dawley, rat, plasma, iv, 1 mg/kg, male rat, single IV bolus 1 mg/kg of compound 9, DMI vehicle, analyte 9a in plasma; read-out: AUCall
property label: AUC (ng·h/mL)
API: value field is a number in ng·h/mL; no unit string.

Problem: Look at this compound and give its reported AUC. Cc1cc(F)ccc1Oc1cc(C(F)(F)F)ccc1C(=O)Nc1cc[nH]c(=O)c1 [Compound 9a]
Result: 592

----------
Assay: Rat oral pharmacokinetic study
Format: in vivo, Sprague Dawley rats
Settings: Sprague Dawley; female rat, single PO 30 mg/kg of compound 9, 5% TPGS/5% PVP-K30/50 mM Citrate pH 5, analyte 9a in plasma, mean ± SD
property label: Cmax (ng/mL)
API: value field is a number in ng/mL; no unit string.

Problem: Look at this compound and give its reported Cmax. Cc1cc(F)ccc1Oc1cc(C(F)(F)F)ccc1C(=O)Nc1cc[nH]c(=O)c1
Result: 3330

----------
Experiment: Rat oral pharmacokinetic study
Assay type: in vivo, Sprague Dawley rats
Conditions: Sprague Dawley; female rat, single PO 1000 mg/kg of compound 9, 5% TPGS/5% PVP-K30/50 mM Citrate pH 5, analyte 9a in plasma, mean ± SD
property label: half-life
Answers without a unit are incomplete; give the number and then its unit.

Problem: Look at this molecule and give its reported half-life. Cc1cc(F)ccc1Oc1cc(C(F)(F)F)ccc1C(=O)Nc1cc[nH]c(=O)c1
Result: 7.9 h
